Field: growth inhibition. Provide a value for each of the molecules that follow.
- assay.procedure: inhibition of 3D7 malaria parasite growth – strain 3D7 (AID 2306);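 note: 0% = DMSO wells and 100% = chloroquine plus artemisinin control wells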
- experimental.conditions: P. falciparum 3D7 erythrocytic growth, LDH absorbance, 72 h; at 2 µM; stronger effect = higher value
Give a bare numeral; the unit % is implied.

# input Look up growth inhibition: COc1ccc2[nH]cc(C3=CCN(Cc4ccccc4)CC3)c2c1
# output 90

# input Look up growth inhibition: COc1ccc(C(=O)[C@H]2C[C@@H]2CN2CC=C(c3c[nH]c4cccc(Br)c34)CC2)cc1
# output 88

# input Look up growth inhibition: Cc1ccc(CC(C)NCC(O)c2cccc(Cl)c2)cc1F (centres undefined)
# output 95

# input Look up growth inhibition: S=C(Nc1ccccc1Cl)NC1CCC(CN2CCC(c3c[nH]c4ccccc34)CC2)CC1 (centres undefined)
# output 90

# input Look up growth inhibition: O=C(/C=C/c1ccc(O)cc1)NC1CCC(CN2CCC(c3c[nH]c4ccccc34)CC2)CC1 (centres undefined)
# output 99

# input Look up growth inhibition: CCC(C)(C)N[C@@H](C)[C@@H](O)c1ccc(C(F)(F)F)cc1
# output 97

# input Look up growth inhibition: COc1ccc(OC)c(CNCC(O)c2cc(C(F)(F)F)cc(C(F)(F)F)c2)c1 (centres undefined)
# output 92

# input Look up growth inhibition: CCCCCCc1cc(O)c2c3c(c(=O)oc2c1)CCN(C)C3
# output 99

# input Look up growth inhibition: CNCCCN(C)C(=O)Oc1c(Br)c(C)nc(C)c1-c1ccc(Oc2ccc(OC(F)(F)F)cc2)cc1
# output 96

# input Look up growth inhibition: CNC(=O)c1ccc2[nH]cc(C3CCN(CC4CCC(NC(=O)/C=C/c5ccc(Cl)c(Cl)c5)CC4)CC3)c2c1 (centres undefined)
# output 100

# input Look up growth inhibition: CCN(Cc1ccccc1)CC(O)c1ccc(Cl)c(Cl)c1 (centres undefined)
# output 96

# input Look up growth inhibition: CN1CC=C(c2c[nH]c3ccc(Oc4ccccc4)cc23)CC1
# output 98

# input Look up growth inhibition: Cc1cc(NC(=O)[C@H](CC(C)C)Nc2ccc(C#N)c3ccccc23)ccc1F
# output 95

# input Look up growth inhibition: COc1cccc(CN2CCC(CCOC(c3ccccc3)c3ccc(Cl)cc3)CC2)c1O (centres undefined)
# output 99

# input Look up growth inhibition: CC(=O)Nc1ccc(CN2CCC(N(C)c3cc(NC(=O)c4ccc(F)cc4)ccn3)CC2)cc1
# output 95

# input Look up growth inhibition: CC[C@H]1CN2CC[C@@H]1C[C@H]2[C@H](O)c1cc(N2CCC(O)(c3ccc(Cl)cc3)CC2)nc2ccc(OC)cc12
# output 101

# input Look up growth inhibition: COCCNCc1cccc(-c2ccccc2CN(C(=O)Nc2ccccc2)C2CCN(Cc3ccccc3)CC2)c1
# output 96

# input Look up growth inhibition: O=C(/C=C/c1ccc(Cl)c(Cl)c1)N1CCC(CN2CCC(c3c[nH]c4ccc(O)cc34)CC2)CC1
# output 101

# input Look up growth inhibition: CC[C@H]1CN2CC[C@H]1C[C@H]2[C@H](O)c1cc(-c2cccc(C)c2)nc2ccc(OC)cc12
# output 100

# input Look up growth inhibition: CCCC(=O)c1c(O)c2ccccc2oc1=O
# output 93

# input Look up growth inhibition: Oc1ccc2[nH]cc(C3=CCN(CCc4ccccc4)CC3)c2c1
# output 96

# input Look up growth inhibition: COc1ccc(CCNCc2ccc3nc(N)cc(C)c3c2)cc1
# output 100

# input Look up growth inhibition: COCCNCc1ccc(-c2ccc(CN(C(=O)NC3CCCCC3)C3CCN(Cc4ccccc4)CC3)cc2)cc1
# output 94

# input Look up growth inhibition: O=[N+]([O-])c1ccc(Oc2c(Cl)cc(S(=O)(=O)NC3CCC(CN4CCC(c5c[nH]c6ccccc56)CC4)CC3)cc2Cl)c(Cl)c1 (centres undefined)
# output 100

# input Look up growth inhibition: CC(=O)N(Cc1ccccc1-c1cccc(CNCCc2ccccc2)c1)C1CCN(Cc2ccccc2)CC1
# output 89

# input Look up growth inhibition: O=C1Nc2cccc3c2C1(CCCCCN1CC=C(c2c[nH]c4ccccc24)CC1)CCC3 (centres undefined)
# output 94

# input Look up growth inhibition: CC[C@H]1CN2CC[C@H]1C[C@H]2[C@H](O)c1cc(N2CCC3CCCCC3C2)nc2ccc(OC)cc12 (some centres undefined)
# output 100

# input Look up growth inhibition: CC(Cc1ccc(SC(C)C)cc1)NCC(O)c1cccc(Cl)c1 (centres undefined)
# output 99

# input Look up growth inhibition: Oc1ccc2[nH]cc(C3=CCN(Cc4ccccc4)CC3)c2c1
# output 94

# input Look up growth inhibition: CC(C)CNCc1cccc(-c2cccc(CN(C(=O)NC3CCCCC3)C3CCN(Cc4ccccc4)CC3)c2)c1
# output 97

# input Look up growth inhibition: N#Cc1c(F)cc(N2CCC(NCC[C@H](N)Cc3ccc(F)c(F)c3)CC2)cc1F
# output 102

# input Look up growth inhibition: COc1ccc(CN(C2CC2)C(C)C(=O)c2[nH]c(C)c(C(C)=O)c2C)cc1 (centres undefined)
# output 98

# input Look up growth inhibition: COC(=O)c1ccc(CC(C)NCC(O)c2cccc(C(F)(F)F)c2)cc1F (centres undefined)
# output 82

# input Look up growth inhibition: CC(Cc1ccc(OCc2ccccc2)c(Cl)c1)NCC(O)c1cccc(C(F)(F)F)c1 (centres undefined)
# output 97

# input Look up growth inhibition: S=C(NCCc1ccc(Cl)cc1)N1CCC(CN2CCC(c3c[nH]c4ccccc34)CC2)CC1
# output 90

# input Look up growth inhibition: CN(CC(=O)N1CCN(S(=O)(=O)c2cccc(Cl)c2)CC1CN1CCCC1)c1ccc(Cl)c(Cl)c1 (centres undefined)
# output 89

# input Look up growth inhibition: COc1ccc(OC)c(C(O)CNC(C)C)c1 (centres undefined)
# output 96

# input Look up growth inhibition: CN1CC=C(c2c[nH]c3ccc(OCc4ccccc4)cc23)CC1
# output 95

# input Look up growth inhibition: Cc1ccc(CC(C)NCC(O)c2cccc([N+](=O)[O-])c2)cc1 (centres undefined)
# output 97

---

- assay.procedure: sensitizers of A549 cells to miR-34 induction, primary screen, imaging, A549 dox-inducible miR-34, nuclei and caspase counts (AID 1347080)
- experimental.conditions: A549 miR-34 inducible, Hoechst nuclei count, 48 h; measured here: total cells without miR-34 induction
readout.name: cell count
The answer should be a number; do not append a unit.

# input Look up cell count: Oc1ccc2c3c1O[C@H]1c4oc5ccccc5c4C[C@@]4(O)[C@@H](C2)N(CC2CC2)CC[C@]314
# output 10900

# input Look up cell count: CCCCCCCC/C=C\CCCCCCCC(=O)N[C@H](C)CO
# output 5540

# input Look up cell count: CO[C@@H]1C[C@@H](C[C@H]2CC[C@H](C)[C@H]([C@@H](C)C(=O)O)O2)O[C@]2(O[C@](C)([C@H]3CC[C@@](C)([C@@H]4O[C@@H]([C@H]5O[C@@](O)(CO)[C@H](C)C[C@@H]5C)C[C@@H]4C)O3)C[C@H]2C)[C@@H]1C
# output 1800

# input Look up cell count: c1cc(Cc2cnc[nH]2)ccn1
# output 9710

# input Look up cell count: N#CC(C#N)=Cc1ccc(O)cc1
# output 5070

# input Look up cell count: CCCC[N+]1(C)C2CC(OC(=O)[C@H](CO)c3ccccc3)CC1C1OC12 (some centres undefined)
# output 10500

# input Look up cell count: COC1CCC(OC2C[C@H]([C@]3(C)CC[C@]4(CC(O)C(C)[C@@H](C(C)C=C(C)C(=O)C(C)CC(C)C(=O)O)O4)O3)O[C@]3(O[C@@H]([C@H]4O[C@@](O)(CO)C(C)CC4C)CC3C)C2C)OC1C (some centres undefined)
# output 918

# input Look up cell count: N#Cc1cnn(-c2ccc(Cl)cc2)c1N
# output 9420

# input Look up cell count: CN1C2C[C@H](OC(=O)[C@H](CO)c3ccccc3)C[C@H]1[C@@H](O)C2
# output 9620

# input Look up cell count: C=C(C)[C@@H]1CCC(C)=C[C@H]1C1=C(O)C(=O)C(CCCCC)=CC1=O
# output 5000

# input Look up cell count: CCCCCCCCCCCC[N+](C)(C)CCOc1ccccc1
# output 6870

# input Look up cell count: O=C1CC2OCC=C3CN4CC[C@]56c7ccccc7N1C5[C@H]2[C@H]3CC46 (some centres undefined)
# output 12700

# input Look up cell count: O=NN(O)N1CCC[C@H]1C(=O)O
# output 6080

# input Look up cell count: CC1(C)CC(O)CC(C)(C)N1O
# output 7670

# input Look up cell count: CCCCC[C@@H](/C=C/C=C\C/C=C\C/C=C\CCCC(=O)O)OO
# output 5950

# input Look up cell count: NNC(=O)c1ccc(O)cc1
# output 10000

# input Look up cell count: CCN1C[C@@]2(COC)C3[C@@H](OC)[C@H]4[C@H]1C3([C@@H]1C[C@@]3(O)[C@H](OC(=O)c5ccccc5)[C@@H]1[C@]4(OC(C)=O)[C@@H](O)[C@@H]3OC)[C@H](OC)C[C@H]2O
# output 5800

# input Look up cell count: CCCCCCC[n+]1ccc(-c2cc[n+](CCCCCCC)cc2)cc1
# output 1710

# input Look up cell count: Cc1ccccc1-n1c(Cn2ncc3c(N)ncnc32)nc2cccc(C)c2c1=O
# output 9490
